# target.of.assay: IDO1 activity in SKOV3 (Homo sapiens, UniProt P14902)
# Construct: an ovarian cancer cell line that intrinsically expresses IDO1; host or cells: SKOV3 (in vitro); SKOV3X (Indiana University Research and Technology Center) as intraperitoneal xenograft tumours in athymic nude mice
# Sequence (P14902 whole entry): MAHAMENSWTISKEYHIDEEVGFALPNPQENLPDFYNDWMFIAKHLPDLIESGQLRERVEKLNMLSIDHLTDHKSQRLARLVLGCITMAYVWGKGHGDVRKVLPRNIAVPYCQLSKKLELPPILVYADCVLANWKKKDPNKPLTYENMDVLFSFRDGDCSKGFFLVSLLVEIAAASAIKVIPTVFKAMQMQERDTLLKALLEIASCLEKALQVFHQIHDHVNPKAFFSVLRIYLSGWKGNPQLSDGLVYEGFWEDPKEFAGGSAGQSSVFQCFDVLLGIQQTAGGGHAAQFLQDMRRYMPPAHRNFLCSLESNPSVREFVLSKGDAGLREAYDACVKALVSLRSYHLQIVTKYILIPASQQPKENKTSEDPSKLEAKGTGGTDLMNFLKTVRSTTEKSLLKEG
# protocol.description: Kynurenine production assay (SKOV3)
# Type: cell-based
# details: SKOV3 cells, 18 hours, MS measurement in media; read-out: IC50 for inhibiting N-formyl-kynurenine
measured.quantity: IC50

Entry under review: C[C@@H](NC(=O)c1ccc(F)cc1)c1ccc2c(c1)CCN2C(=O)C1CCOCC1 (single isomer, unassigned) . Reported IC50?
7 nM

---

# target.of.assay: IDO1 activity in SKOV3 (Homo sapiens, UniProt P14902)
# Construct: an ovarian cancer cell line that intrinsically expresses IDO1; host or cells: SKOV3 (in vitro); SKOV3X (Indiana University Research and Technology Center) as intraperitoneal xenograft tumours in athymic nude mice
# protocol.description: Kynurenine production assay (SKOV3)
# Assay type: cell-based
# details: SKOV3 cells, 18 hours, MS measurement in media; read-out: IC50 for inhibiting kynurenine
measured.quantity: pIC50
pIC50 here is simply -log10 of the concentration when that concentration is written in mol/L.

Entry under review: C[C@@H](NC(=O)c1ccc(F)cc1)c1ccc2c(c1)CCN2C(=O)C1CCOCC1 (single isomer, unassigned) . Reported pIC50?
8.15
